Exercise: state measured solubility in toluene for each of the compounds provided.
- Measurement Description: Solubility measurement in toluene
- Type: physicochemical
- Setup Conditions: 60° C.

Solved entries (count: 5):
What does the record list as solubility in toluene for CCCCCCCCCCc1ccc2cc3c(cc2c1)sc1c2cc4ccc(CCCCCCCCCC)cc4cc2sc31 [Compound No. 12] ? 50 µg/mL

Same for c1ccc2cc3c(cc2c1)sc1c2cc4ccccc4cc2sc31 [ref. 1, reference compound] ≤ 10 µg/mL

And for CCCCCCCCCCCCc1ccc2cc3c(cc2c1)sc1c2cc4ccc(CCCCCCCCCCCC)cc4cc2sc31 [Compound No. 14] ? 40 µg/mL

Would you kindly repeat that for CCCCCCCCc1ccc2cc3c(cc2c1)sc1c2cc4ccc(CCCCCCCC)cc4cc2sc31 [Compound No. 10] ? 60 µg/mL

Also check CCCCCCc1ccc2cc3c(cc2c1)sc1c2cc4ccc(CCCCCC)cc4cc2sc31 [compound 6] 80 µg/mL

In the following, a different compound is considered.
What value of measured solubility in toluene is listed for CCCCc1ccc2cc3c(cc2c1)sc1c2cc4ccc(CCCC)cc4cc2sc31 [ref. 2, reference compound] ? 20 µg/mL

These measurements were taken from patent US9796727B2.
